These measurements were taken from ChEMBL document CHEMBL4130376.

- methodSummary: AUC (0 to 24 hrs) in rat at 10 mg/kg, po
- Type: ADME, organism-based
- Design: time < 24 hr, dose 10 mg/kg, route oral
- experimentalParameters: in vivo
parameter: AUC(0-t) at 24 h (ng·h/mL)
# value in ng·h/mL; strip the unit string

QUERY: Any idea what AUC(0-t) at 24 h was measured for CS(=O)(=O)CCCn1c(Cn2nc(S(C)(=O)=O)c3ccccc32)nc2cc(Cl)ccc21 ?
RESULT: 204

----------
- methodSummary: Effective permeability of the compound by PAMPA
- Assay type: ADME
- experimentalParameters: read-out: Peff
Listed molecules paired with reported Papp
# value in ×10⁻⁶ cm/s; strip the unit string

// solved cases for Papp follow
| molecule | Papp [×10⁻⁶ cm/s] |
| --- | --- |
| CS(=O)(=O)c1nn(Cc2nc3cc(Cl)ccc3n2CCC(F)(F)F)c2cnccc12 | 2.81 |
| CS(=O)(=O)CCCn1c(Cn2nc(S(C)(=O)=O)c3ccncc32)nc2cc(Cl)ccc21 | 1.55 |
| CC(C)(O)CCn1c(Cn2nc(S(C)(=O)=O)c3ccncc32)nc2cc(Cl)ccc21 | 2.39 |
| CS(=O)(=O)c1nn(Cc2nc3cc(Cl)ccc3n2CCCO)c2cnccc12 | 3.47 |

Turning now to a further record.
QUERY: Any idea what Papp was measured for CS(=O)(=O)CCCn1c(Cn2nc(S(C)(=O)=O)c3ccccc32)nc2cc(Cl)ccc21 ?
RESULT: 2.78
